# Test system: SK-OV-3 ovarian
# experiment.summary: NCI-60 one-dose screen, 48 h
# test.conditions: 10 µM
The panel holds about 83,000 compounds, 20% with a hit somewhere; the sample as a whole holds those more often. Active and inactive are the calls of the source. The calls were made as follows: active = growth percent below 10; inactive = the rest.
The reply should be one of these categories: active, inactive

Worked set:
| compound | label.class |
| --- | --- |
| Cc1cc(CSc2ccccc2C(=O)N2CC=C(c3ccccc3)CC2)on1 | inactive |
| Nc1cc(-c2ccc(Cl)cc2)nn1-c1nc2ccccc2nc1Cc1ccccc1 | inactive |
| CCCCC1(O)CCCCC1 | inactive |
| CC(C)(C)OC(=O)CC(S(=O)(=O)c1ccccc1)S(=O)(=O)c1ccccc1 | inactive |
| COc1ccc([C@H]2[C@H](C(=O)Nc3cccnc3)c3ccccc3C(=O)N2c2ccccc2)cc1 | inactive |

Q) // param item: `O=C(N/N=C/c1ccc(Cl)cc1)c1ccc(Cc2n[nH]c(=O)c3cccnc23)cc1` ; yields the recorded call
A) inactive

Q) Hi team, can someone confirm the assay call for CC(CN(C)C)Oc1ccc(OC(C)CN(C)C)c2c1C(=O)c1ccccc1C2=O (stereo unspecified) ?
A) inactive

Q) For this compound, state the assay outcome: `COc1cc2cc(Oc3ccc(NC(=O)Nc4ccc(Cl)c(C(F)(F)F)c4)cc3)c(C)nc2cc1OC`
A) active

* * *

# System: NCI-H460 lung
# experiment.summary: NCI-60 one-dose screen, 48 h (100 = growth as untreated, 0 = no growth, -100 = all killed)
# test.conditions: 10 µM
The panel holds about 83,000 compounds, 20% with a hit somewhere; the sample as a whole holds those more often.
property.measured: growth (%)
Numbers only, in %.

| molecule | growth / % |
| --- | --- |
| COc1ccc(-c2cc(-c3ccc(OC)c(OC)c3)nc(SCCCC(=O)NO)n2)cc1 | -4.97 |
| COc1ccc(NC(=O)C2CC3C=CC2C3)c([N+](=O)[O-])c1 (stereo not given) | 107 |
| COc1cc(C2C(C#N)=C(N)Oc3cc(O)ccc32)cc(OC)c1OC (stereo not given) | 9.65 |

List the reported growth of each molecule below.
1. COc1ccc2c(c1)CC=C1[C@@H]2CC[C@]2(C)C(=O)/C(=N/O)C[C@@H]12
2. C[C@H]1[C@H](OC(=O)CCC(=O)O)O[C@@H]2O[C@]3(C)CC[C@H]4[C@H](C)CC[C@@H]1[C@@]24OO3

A)
101
25.5

* * *

# System: HOP-62 NSCLC
# experiment.summary: NCI-60 one-dose screen, 48 h
# test.conditions: 10 µM
This is part of a sample that, as a whole, favours compounds with a hit. Of some 83,000 tested, about 20% had one in any assay. Activity calls are given as the source filed them. Rule for the calls: active = growth percent below 10; inactive = the rest.
Write down one outcome, taken from active, inactive

Look over these answered cases.
| compound | label.class |
| --- | --- |
| O=C(CSc1nnc(-c2cccnc2SCc2ccccc2)o1)Nc1nc(Cl)cc(Cl)n1 | inactive |
| COc1cc(-c2nn(-c3cccc(NC(=O)CN4CCOCC4)c3)cc2-c2cccnc2)ccc1Cl | inactive |
| C#CC(C)(O)[C@@H]1C[C@H](CC(=O)O)C1(C)C (stereo partly specified) | inactive |
| N#Cc1c(N)nc(-c2cc(F)cc(C(F)(F)F)c2)nc1-c1ccccc1F | inactive |
| CN(C)CCCSc1ccccc1NC1=C(Cl)C(=O)C(Nc2ccccc2SCCCN(C)C)=C(Cl)C1=O | inactive |

Q) Would you mind telling me which call this test gave C/C=C/C1=CN2C(=O)c3cc(OC4OC(C)C(NC)C(C)(O)C4O)c(C)c(O)c3N=C[C@@H]2C1 (stereo partly specified) ?
A) active

Q) So what was the verdict on `C/C(=N\O)c1ccc(NC(=O)CSc2nnc(-c3ccccc3)n2-c2ccccc2)cc1` in this test?
A) inactive

Q) Per the assay record, what outcome was assigned to `COc1ccc(C2=Cn3c(CCC(=O)c4nc5ccccc5[nH]4)nnc3SC2)cc1` ?
A) inactive

Q) GET /call?item= `Nc1nccc(OCCO)n1` returns the recorded outcome of this test.
A) inactive

Q) Hi team, can someone confirm the assay call for `CC(=O)N[C@H](C(=O)N[C@@H](CCCNC(=N)N)C(=O)N[C@@H](CCCCN)C(=O)N[C@@H](CCCNC(=N)N)C(=O)N[C@]1(C)CCC/C=C\CCC[C@@](C)(C(=O)N[C@@H](CC(C)C)C(=O)N[C@@H](CC(C)C)C(=O)N[C@@H](CCC(N)=O)C(=O)N[C@@H](CCC(=O)O)C(=O)N[C@@H](CCCNC(=N)N)C(=O)N[C@@H](CCC(=O)O)C(=O)N[C@@H](CC(C)C)C(=O)N[C@H](C(=O)N[C@@H](CCC(=O)O)C(N)=O)C(C)C)NC(=O)[C@H](CCCNC(=N)N)NC(=O)[C@H](CC(C)C)NC1=O)C(C)C` ?
A) inactive

Q) Any idea what this test logged for `O=C(CCCSc1nc(-c2ccccc2)cc(-c2ccc(Cl)cc2)n1)NO` ?
A) inactive

Q) Tell me the assay call for `COc1cc(Cc2cc(-c3ccccc3)n[nH]c2=O)cc(OC)c1OC` please.
A) inactive

Q) Hi, do you know how Cc1ccc(C(=O)C2C(=O)C3CCC2C3)cc1 (stereo unspecified) came out in this test?
A) inactive

Q) GET /call?item= `CNC(=O)c1cc(Oc2ccc3c(c2)sc2nc(-c4ccc(NC(=O)Nc5ccc(Cl)c(C(F)(F)F)c5)cc4)cn23)ccn1` returns the recorded outcome of this test.
A) inactive

Q) State the result this test recorded for `CC(C)(C)OC(=O)N1CCc2c(sc3ncnc(N/N=C/c4ccc(Br)cc4)c23)C1` .
A) inactive

Q) Outcome logged for CC(=O)C1CCC2C3CC=C4CC(SC(=N)N)CCC4(C)C3CCC12C (stereo unspecified) in this assay:
A) inactive

* * *

# System: MCF7 breast
# experiment.summary: NCI-60 one-dose screen, 48 h (100 = growth as untreated, 0 = no growth, -100 = all killed)
# test.conditions: 10 µM
# Experimental: Growth inhibition of the MCF7 human tumor cell line is measured as a screen for anti-cancer activity. Cells are grown in 96 well plates and exposed to the test compound for 48 hours. Compounds are tested at a single concentration, which is 10^-5 M for most compounds. The reported endpoint is percent growth (GI% or GIPRCNT), where numbers from 0 - 100% represent growth inhibition, and numbers from -100% - 0 represent cell death. For example, a value of 40 represents 60% growth inhibition. […]
The panel holds about 83,000 compounds, 20% with a hit somewhere; the sample as a whole holds those more often.
Please note: 1 applies when growth is 90% or greater, and 0 applies otherwise.

Worked examples follow.
| molecule | label.class |
| --- | --- |
| CCN(CC)CCCOc1cccc2c1C(=O)c1cccc(OCCCN(CC)CC)c1C2=O | 0 |
| CC(C)[N+]1(C)C2CC[C@@H]1CC(OC(=O)C(CO)c1ccccc1)C2 (stereo partly specified) | 1 |
| O=C(/C=C/C=C/c1c(C2CC2)nc2ccccc2c1-c1ccc(F)cc1)c1cccs1 | 0 |
| IC(I)I | 1 |

Q) Decide: growth of `COc1cc2c(cc1NC(=O)C(Cl)Cl)-c1ccc(NC(=O)C(Cl)Cl)cc1C2` >= 90%?
A) 0

Q) API: above_or_equal(metric=growth, cutoff=90%) for item `COc1cc(C(=O)/C=C/c2c[nH]c3ccccc23)cc(OC)c1OC`
A) 0

Q) Please indicate if the recorded growth for N#CC1=CC2CN(Cc3ccccc3)C1C1C(=O)N(c3ccccc3)C(=O)C21 (stereo unspecified) meets or exceeds 90%.
A) 1

Q) Hi, just wondering whether `CNS(=O)(=O)Oc1ccc(-c2sc3cc(OS(=O)(=O)NC)ccc3c2C(=O)c2ccc(OCCN3CCCCC3)cc2)cc1` shows growth of 90% or higher.
A) 0

Q) Test whether the molecule CCCCCC(=O)O[C@]1(C(C)=O)CCC2C3CCC4=CC(=O)CC[C@]4(C)C3CC[C@@]21C (stereo partly specified) records growth of 90% or higher.
A) 0

Q) Does `COc1cc2cc(Oc3ccc(NC(=O)c4ccccc4)cc3)c(C)nc2cc1OC` have a reported growth of at least 90%?
A) 0

* * *

# Tested on: ACHN renal
# experiment.summary: NCI-60 one-dose screen, 48 h (100 = growth as untreated, 0 = no growth, -100 = all killed)
# test.conditions: 10 µM
About 83,000 compounds went through this panel and 20% of them were active in at least one assay; those are over-represented in the sample as a whole.
property.measured: growth (%)
One number for each entry, in %.

The examples below pair each entry with its known result.
| molecule | growth (%) |
| --- | --- |
| COc1cc2c(Nc3ccc(-c4ccc(N)cc4)cc3)ncnc2c(OC)c1OC | 32.1 |
| CCn1c(CSc2nc3ccccc3c(=O)n2CCc2ccccc2)n[nH]c1=S | 96.8 |
| COc1cccc(CNc2cccc3cn[nH]c23)c1O | 98.7 |
| Nc1ccc(CC[C@H]2CCC/C=C/[C@@H]3C[C@H](O)C[C@H]3[C@H](O)/C=C/C(=O)O2)cc1 | 10 |

// each molecule listed below needs its growth
1. O=C(/C=C/C=C/c1c(C2CC2)nc2ccccc2c1-c1ccc(F)cc1)c1cccs1
2. CC[C@@H](C(=O)[C@H](C)[C@H](O)[C@@H](C)[C@H]1O[C@H]([C@@H](CC)C(=O)O)CC[C@H]1C)C1O[C@]2(C=C[C@@H](O)[C@]3(CC[C@@](C)([C@H]4CC[C@](O)(CC)[C@H](C)O4)O3)O2)[C@H](C)C[C@@H]1C (stereo partly drawn)
3. COc1ccc(NC(=O)C2CC3C=CC2C3)c([N+](=O)[O-])c1 (stereo not drawn)

A)
1. -42.6
2. 31.2
3. 98.4

Q) For the molecule `O=C(N/N=C/c1cc([N+](=O)[O-])ccc1O)c1cccc2ccccc12` , give its reported growth.
A) 15.7

Reference source: PubChem BioAssay (NCI)
